Parameter: pIC50. Scope: all listed entries.
- MEASURED ON: human CTPS1 (Homo sapiens)
- Construct: FLAG (with GG linker); His8 (with GG linker); purchased Proteros biostructures GmbH
- Sequence (P17812 1-591): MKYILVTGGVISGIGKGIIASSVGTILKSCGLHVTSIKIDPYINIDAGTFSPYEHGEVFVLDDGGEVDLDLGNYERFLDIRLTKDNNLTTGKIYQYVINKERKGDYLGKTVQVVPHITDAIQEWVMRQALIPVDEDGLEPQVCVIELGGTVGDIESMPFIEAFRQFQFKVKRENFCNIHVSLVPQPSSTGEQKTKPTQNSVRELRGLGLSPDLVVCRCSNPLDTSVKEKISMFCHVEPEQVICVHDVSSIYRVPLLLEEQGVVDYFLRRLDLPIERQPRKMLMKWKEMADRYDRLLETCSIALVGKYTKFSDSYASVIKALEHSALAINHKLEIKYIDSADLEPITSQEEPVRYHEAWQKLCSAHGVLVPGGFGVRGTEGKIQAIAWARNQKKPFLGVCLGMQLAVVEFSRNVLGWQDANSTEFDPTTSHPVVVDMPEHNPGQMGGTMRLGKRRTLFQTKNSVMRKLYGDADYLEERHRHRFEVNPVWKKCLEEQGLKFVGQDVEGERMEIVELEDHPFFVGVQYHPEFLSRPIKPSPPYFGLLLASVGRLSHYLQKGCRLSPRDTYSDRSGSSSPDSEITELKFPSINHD
- METHOD NOTES: Human CTPS1 enzyme inhibition, ADP-Glo Max assay
- Format: biochemical
- DETAILS: ADP-Glo Max assay; Table 10; read-out: Human CTPS1 Enzyme Inhibition, IC50 grouped by potency range (CTPS1)
pIC50: −log10 of the molar value.
PARAMETER MEASURED: pIC50

>  <CHEM SMILES>
CC(C)(C)c1ccc(-c2ccc(NC(=O)Cc3csc(NS(=O)(=O)C4CC4)n3)cc2)cc1

>  <MEASURED ON>
human CTPS1 (Homo sapiens)

>  <PARAMETER MEASURED>
pIC50

>  <TEST VALUE>
5.00 to 6.00

$$$$
>  <CHEM SMILES>
CCC(CC)(C(=O)Nc1ccc(-c2cncc(C(F)(F)F)n2)cn1)c1csc(NS(=O)(=O)C2CC2)n1

>  <MEASURED ON>
human CTPS1 (Homo sapiens)

>  <PARAMETER MEASURED>
pIC50

>  <TEST VALUE>
> 7.00

$$$$
>  <CHEM SMILES>
COc1cncc(-c2ccc(NC(=O)C(C)(C)c3csc(NS(=O)(=O)C4CC4)n3)c(C)c2)c1

>  <MEASURED ON>
human CTPS1 (Homo sapiens)

>  <PARAMETER MEASURED>
pIC50

>  <TEST VALUE>
> 7.00

$$$$
>  <CHEM SMILES>
CCOc1cc(NC(=O)C(C)(C)c2csc(NS(=O)(=O)C3CC3)n2)ccc1-c1cncc(C#N)c1

>  <MEASURED ON>
human CTPS1 (Homo sapiens)

>  <PARAMETER MEASURED>
pIC50

>  <TEST VALUE>
6.00 to 7.00

$$$$
>  <CHEM SMILES>
COc1cncc(-c2ccc(NC(=O)C(C)(C)c3csc(NS(=O)(=O)C4CC4)n3)nc2)c1

>  <MEASURED ON>
human CTPS1 (Homo sapiens)

>  <PARAMETER MEASURED>
pIC50

>  <TEST VALUE>
> 7.00

$$$$
>  <CHEM SMILES>
CC(C)(C(=O)Nc1ccc(-c2cncc(F)c2)cn1)c1csc(NS(=O)(=O)C2CC2)n1

>  <MEASURED ON>
human CTPS1 (Homo sapiens)

>  <PARAMETER MEASURED>
pIC50

>  <TEST VALUE>
> 7.00

$$$$
>  <CHEM SMILES>
Cc1cnc(C)c(-c2ccc(NC(=O)C(C)(C)c3csc(NS(=O)(=O)C4CC4)n3)cc2)n1

>  <MEASURED ON>
human CTPS1 (Homo sapiens)

>  <PARAMETER MEASURED>
pIC50

>  <TEST VALUE>
5.00 to 6.00

$$$$
>  <CHEM SMILES>
CC(C)Oc1cncc(-c2ccc(NC(=O)C(C)(C)c3csc(NS(=O)(=O)C4CC4)n3)nc2)n1

>  <MEASURED ON>
human CTPS1 (Homo sapiens)

>  <PARAMETER MEASURED>
pIC50

>  <TEST VALUE>
> 7.00

$$$$
>  <CHEM SMILES>
Cc1cc(NC(=O)C(C)(C)c2csc(NS(=O)(=O)C3CC3)n2)ccc1-c1cncc(Cl)c1

>  <MEASURED ON>
human CTPS1 (Homo sapiens)

>  <PARAMETER MEASURED>
pIC50

>  <TEST VALUE>
6.00 to 7.00

$$$$
>  <CHEM SMILES>
CC(C)(C(=O)Nc1ccc(-c2cncc(S(C)(=O)=O)c2)cc1)c1csc(NS(=O)(=O)C2CC2)n1

>  <MEASURED ON>
human CTPS1 (Homo sapiens)

>  <PARAMETER MEASURED>
pIC50

>  <TEST VALUE>
6.00 to 7.00

$$$$
>  <CHEM SMILES>
CC(C)(C(=O)Nc1ncc(-c2cncc(F)c2)cc1F)c1csc(NS(=O)(=O)C2CC2)n1

>  <MEASURED ON>
human CTPS1 (Homo sapiens)

>  <PARAMETER MEASURED>
pIC50

>  <TEST VALUE>
> 7.00

$$$$
>  <CHEM SMILES>
COc1nccc(C)c1-c1ccc(NC(=O)C(C)(C)c2csc(NS(=O)(=O)C3CC3)n2)cc1

>  <MEASURED ON>
human CTPS1 (Homo sapiens)

>  <PARAMETER MEASURED>
pIC50

>  <TEST VALUE>
5.00 to 6.00

$$$$
>  <CHEM SMILES>
O=C(Cc1csc(NS(=O)(=O)C2CC2)n1)Nc1ccc(-c2cncnc2)cc1

>  <MEASURED ON>
human CTPS1 (Homo sapiens)

>  <PARAMETER MEASURED>
pIC50

>  <TEST VALUE>
6.00 to 7.00

$$$$
>  <CHEM SMILES>
Cc1ccc(-c2ccc(NC(=O)C(C)(C)c3csc(NS(=O)(=O)C4CC4)n3)cc2)cn1

>  <MEASURED ON>
human CTPS1 (Homo sapiens)

>  <PARAMETER MEASURED>
pIC50

>  <TEST VALUE>
5.00 to 6.00

$$$$
>  <CHEM SMILES>
CC(C)(C(=O)Nc1ccc(-c2cccnc2)c(F)c1)c1csc(NS(=O)(=O)C2CC2)n1

>  <MEASURED ON>
human CTPS1 (Homo sapiens)

>  <PARAMETER MEASURED>
pIC50

>  <TEST VALUE>
6.00 to 7.00

$$$$
>  <CHEM SMILES>
CC(C)(C(=O)Nc1ccc(-c2cncc(OCC(F)(F)F)n2)cc1)c1csc(NS(=O)(=O)C2CC2)n1

>  <MEASURED ON>
human CTPS1 (Homo sapiens)

>  <PARAMETER MEASURED>
pIC50

>  <TEST VALUE>
> 7.00

$$$$
>  <CHEM SMILES>
CC(C)(C(=O)Nc1ccc(-c2cccc(C(F)(F)F)n2)cc1)c1csc(NS(=O)(=O)C2CC2)n1

>  <MEASURED ON>
human CTPS1 (Homo sapiens)

>  <PARAMETER MEASURED>
pIC50

>  <TEST VALUE>
6.00 to 7.00

$$$$
